Tested on: HCT-116 colon
Test: NCI tumour cell line growth inhibition, 48 h
OBSERVATION TYPE: TGI

Before answering, review these 10 worked examples.
O=C(CSc1nc2ccc(I)cc2c(=O)n1Cc1ccccc1)NN1C(=O)CSC1c1ccccc1 (configuration not stated) : 56.1 µM
Nc1ncnc2c1ncn2[C@@H]1C[C@H](NO)[C@@H](O)[C@H]1O : > 100 µM
C=C1C(=O)OC2/C=C(\C)CC/C=C(\C)CC(OC(=O)/C(=C/CO)CO)[C@@H]12 (some centres not stated) : 10.7 µM
CC(C)=CC[C@H]1C[C@@]2(CC=C(C)C)C(=O)/C(=C(/O)c3ccccc3)C(=O)[C@](CC=C(C)C)(C2=O)C1(C)C : 14.5 µM
O=c1[nH]cc(COCC(O)CO)c(=O)[nH]1 (configuration not stated) : > 100 µM
O=C(c1ccccc1)c1ccc(O)c2ncccc12 : 10.3 µM
CN1C(=O)C(C#N)C2C[C@@]1(C)Oc1ccccc12 (some centres not stated) : > 100 µM
O=C1C(CO)=C[C@@H](O)[C@H]2O[C@@H]12 : > 100 µM
O=S1(=O)c2ccccc2-c2nccc3ccnc1c23 : > 100 µM
Cc1ccc(N(/C=C/C(=O)C(F)(F)F)CC(=O)c2ccc(Cl)c(Cl)c2)cc1 : 17.7 µM

TGI reported for this compound Cc1ccc(S(=O)(=O)N[C@@H](Cc2ccccc2)C(=O)CCl)cc1 : > 100 µM

TGI in this record for O=C(/C=C/c1ccccc1Br)c1ccccc1 : 3.85 µM

Memo: COC(=O)/C(C#N)=C(/NCc1ccccc1)Nc1ccccc1 , reported TGI: > 100 µM

# compound CC(=O)[C@]12OC(=O)C3=C1[C@H](CC[C@@H]3C)[C@@H](C)C[C@H]2C=C(C)C ; its TGI = 13.4 µM

Measured TGI, CC(C)(C)CN1[C@@H]2CCCC[C@H]2N(CC(C)(C)C)P1(=O)C(O)/C=C/c1ccccc1 (some centres not stated) : > 100 µM
